# target_desc: Ras-related C3 botulinum toxin substrate 1 (Homo sapiens, UniProt P63000, G15A)
# method: Inhibition of Vav2 binding to Rac1 G15A mutant in human MDA-MB-231 cells after 1 hr by pull down assay
# Type: cell-based
pIC50: −log10 of the molar value.

# structure_string, pIC50
rows = [
    ("CCn1c2ccccc2c2cc(Nc3ccnc(NCCCN4CCOCC4)n3)ccc21", 5.96),
]
